Source of measurements: patent US12065471B2

target: HLA-B*44:05 (Homo sapiens, UniProt P01889, A223V/A65T/A93T/A95T/D201E/D98Y/E176V/E187L/E204Q/E69K/G107R/H137Y/K202T/L105A/L119I/N104T/N87E/Q56L/Q94N/R106L/R155S/R180D/S101N/S121R/S35A/S48T/T118I/V36M/W191S/Y91S); assay: MHC binding assay (UV-ligand exchange, β2m ELISA, peptide exchange yield); details: binding to HLA-B*44:05
result_type: Peptide exchange (MHC class I binding score, peptide exchange yield)

Use the examples below as a reference point.
| substance | observed_value |
| --- | --- |
| 286 (DELSVGRY; listed as Homo sapiens) [compound 286] | ++ (>20% = ++) |
| 217 (EVEVGDRTDW; listed as Homo sapiens) [compound 217] | ++ (>20% = ++) |
| 315 (MEQQSQEY; listed as Homo sapiens) [compound 315] | +++ (>50 = +++) |
| 137 (EKGLISAF; listed as Homo sapiens) [compound 137] | ++ (>20% = ++) |

Record summary for 95 (AAFEDAQGHIW; listed as Homo sapiens) [compound 95] : reported Peptide exchange (MHC class I binding score, peptide exchange yield) = ++++ (>75% = ++++)

Lab note: measured Peptide exchange (MHC class I binding score, peptide exchange yield) of 151 (TELQIPSF; listed as Homo sapiens) [compound 151] was ++ (>20% = ++)

230 (AEALVDGKW; listed as Homo sapiens) [compound 230] has a reported Peptide exchange (MHC class I binding score, peptide exchange yield) of +++ (>50 = +++)

Reported Peptide exchange (MHC class I binding score, peptide exchange yield) for 118 (SEVPVDSHYY; listed as Homo sapiens) [compound 118] was +++ (>50 = +++)

The reported value for 67 (TEGAVEVKY; listed as Homo sapiens) [compound 67] in terms of Peptide exchange (MHC class I binding score, peptide exchange yield) is ++ (>20% = ++)

Per the record, 412 (EESFDSKFY; listed as Homo sapiens) [compound 412] has Peptide exchange (MHC class I binding score, peptide exchange yield) of +++ (>50 = +++)

// Peptide exchange (MHC class I binding score, peptide exchange yield) value for 13 (VEAQDRETW; listed as Homo sapiens) [compound 13] : ++ (>20% = ++)

Input 99 (SECVKSLSF; listed as Homo sapiens) [compound 99] . Output Peptide exchange (MHC class I binding score, peptide exchange yield): ++++ (>75% = ++++)

Peptide exchange (MHC class I binding score, peptide exchange yield) reading for 28 (QEFPAHSL; listed as Homo sapiens) [compound 28] : +++ (>50 = +++)
